Entry source: patent US11919886B2

Property: activity at 10 µM; scope: individual compounds
# Tested on: Escherichia coli
# Experimental Details: Bacterial growth by Alamar Blue in Muller-Hinton broth
# Format: cell-based
# Condition Parameters: 16-24 hours, read-out: % of the activities in the presence of ~10 μM compound, Escherichia coli

{"Test Smiles": "Cc1oc2c(c1C(=O)N1CCC(C)CC1)C(=O)c1ccccc1C2=O", "activity at 10 µM": "> 100%"}
{"Test Smiles": "Cc1oc2c(c1C(=O)NCCC(C)C)C(=O)c1ccccc1C2=O", "activity at 10 µM": "> 100%"}
{"Test Smiles": "Cc1oc2c(c1C(=O)NC(C)(C)C)C(=O)c1ccccc1C2=O", "activity at 10 µM": "> 100%"}
{"Test Smiles": "Cc1oc2c(c1C(=O)NCCCn1ccnc1)C(=O)c1ccccc1C2=O", "activity at 10 µM": "> 100%"}
{"Test Smiles": "COCCNC(=O)c1c(C)oc2c1C(=O)c1ccccc1C2=O", "activity at 10 µM": "> 100%"}
{"Test Smiles": "Cc1oc2c(c1C(=O)N1CCOCC1)C(=O)c1ccccc1C2=O", "activity at 10 µM": "> 100%"}
{"Test Smiles": "CCCCNC(=O)c1c(C)oc2c1C(=O)c1ccccc1C2=O", "activity at 10 µM": "> 100%"}
{"Test Smiles": "O=C(NCCN1CCOCC1)c1coc2c1C(=O)c1ccccc1C2=O", "activity at 10 µM": "> 100%"}
